Source of measurements: patent US12391641B2

This listing pairs compounds with measured Ki.
# SYSTEM NAME: Human prostaglandin E2 receptor 4 (EP4) (Homo sapiens)
# Construct: expressed in transfected cells; host or cells: HEK293 cells transduced with EP4 BacMam virus
# Sequence (P35408 whole entry): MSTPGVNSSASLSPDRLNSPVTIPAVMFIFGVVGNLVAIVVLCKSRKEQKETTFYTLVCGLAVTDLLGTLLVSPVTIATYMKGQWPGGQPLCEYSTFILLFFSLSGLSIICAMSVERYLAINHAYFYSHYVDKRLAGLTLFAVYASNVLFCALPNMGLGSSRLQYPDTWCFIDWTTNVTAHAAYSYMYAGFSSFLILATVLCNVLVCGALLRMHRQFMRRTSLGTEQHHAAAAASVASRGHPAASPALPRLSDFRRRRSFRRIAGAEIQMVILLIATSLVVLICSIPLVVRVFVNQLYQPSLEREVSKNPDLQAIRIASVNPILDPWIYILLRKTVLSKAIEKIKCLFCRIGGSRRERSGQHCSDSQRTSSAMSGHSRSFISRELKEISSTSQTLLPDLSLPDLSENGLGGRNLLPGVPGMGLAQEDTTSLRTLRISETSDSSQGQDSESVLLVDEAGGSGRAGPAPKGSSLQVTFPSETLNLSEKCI
# ASSAY NAME: cAMP Gs Functional Assay (HTRF cAMP dynamic-2), antagonism of PGE2
# Assay type: cell-based
# CONDITION SET: HEK293 cells transfected with EP4 BacMam virus; PGE2 challenge at EC80 (7 nM); pIC50 converted to functional pKb with a modified Cheng Prussoff equation; read-out: Human EP4 fpKb (converted)
Give a bare numeral; the unit nM is implied.

Incoming: Provide measured Ki value, entry: "CC(C)[C@@H](OCc1ccc(C#N)cc1)C(=O)N[C@@H](C)c1ccc(C(=O)O)cc1"
Outgoing: 33.1

Incoming: Provide measured Ki value, entry: "CC(C)[C@@H](OCc1ccc(S(C)(=O)=O)cc1)C(=O)N[C@@H](C)c1ccc(C(=O)O)cc1"
Outgoing: 20.4

Incoming: Provide measured Ki value, entry: C[C@H](NC(=O)C(OCc1ccc(C(F)(F)F)cc1)C1CCC1)c1ccc(C(=O)O)cc1 (single isomer, unassigned) [Example 94]
Outgoing: 5.01

Incoming: Provide measured Ki value, entry: "CC(C)[C@@H](OCc1ccc(C(F)(F)F)cn1)C(=O)N[C@@H](C)c1ccc(C(=O)O)cc1"
Outgoing: 13.8

Incoming: Provide measured Ki value, entry: "CC(C)[C@@H](OCc1ccc2c(c1)OC(F)(F)O2)C(=O)N[C@@H](C)c1ccc(C(=O)O)cc1"
Outgoing: 0.151

Incoming: Provide measured Ki value, entry: "O=C(O)c1ccc(C2(NC(=O)[C@H](OCc3cccc(OC(F)F)c3)C3CCC3)CC2)cc1"
Outgoing: 0.851

Incoming: Provide measured Ki value, entry: "CC(C)[C@@H](OCc1ccccc1)C(=O)N[C@@H](C)c1ccc(C(=O)O)cc1"
Outgoing: 12.9

Incoming: Provide measured Ki value, entry: "CC(C)[C@@H](OCc1ccc(C(F)(F)F)cc1)C(=O)NCc1ccc(C(=O)O)cc1"
Outgoing: 9.77

Incoming: Provide measured Ki value, entry: "CC(C)[C@@H](OCc1cccc(OC(F)F)c1)C(=O)N[C@@H](C)c1ccc(-c2nnn[nH]2)cc1"
Outgoing: 0.0871

Incoming: Provide measured Ki value, entry: "CC(C)[C@@H](OCc1cccc(S(=O)(=O)C2CC2)c1)C(=O)N[C@@H](C)c1ccc(C(=O)O)cc1"
Outgoing: 29.5

Incoming: Provide measured Ki value, entry: "CC(C)[C@@H](OCc1ccc(Cl)cc1)C(=O)N[C@@H](C)c1ccc(C(=O)O)cc1"
Outgoing: 3.16

Incoming: Provide measured Ki value, entry: "CC(C)[C@@H](OCc1cccc(C(F)(F)F)c1)C(=O)N[C@@H](C)c1ccc(C(=O)O)cc1"
Outgoing: 0.288

---

# SYSTEM NAME: Human prostaglandin E2 receptor 4 (EP4) (Homo sapiens)
# Construct: expressed in transfected cells; host or cells: HEK293 cells transduced with EP4 BacMam virus
# ASSAY NAME: cAMP Gs Functional Assay (HTRF cAMP dynamic-2), antagonism of PGE2
# Assay type: cell-based
# CONDITION SET: HEK293 cells transfected with EP4 BacMam virus; PGE2 challenge at EC80 (7 nM); pIC50 converted to functional pKb with a modified Cheng Prussoff equation; read-out: Human EP4 fpKb (converted)
This listing pairs compounds with measured Ki.
Give a bare numeral; the unit nM is implied.

Incoming: Provide measured Ki value, entry: CC(C)C(OCc1cccc(C2COC2)c1)C(=O)N[C@@H](C)c1ccc(C(=O)O)cc1 (single isomer, unassigned) [Example 49]
Outgoing: 2.29

Incoming: Provide measured Ki value, entry: CC(C)[C@@H](OCc1ccc(F)c(C2CC2)c1)C(=O)NC1(c2ccc(C(=O)O)cc2)CC1 [Example 89]
Outgoing: 6.76

Incoming: Provide measured Ki value, entry: CC(C)C(OCc1cccc(F)c1)C(=O)N[C@@H](C)c1ccc(C(=O)O)cc1 (single isomer, unassigned) [Example 18]
Outgoing: 457

Incoming: Provide measured Ki value, entry: CC(C)[C@@H](OCc1cc(OC(F)F)ccn1)C(=O)N[C@@H](C)c1ccc(C(=O)O)cc1 [Example 77]
Outgoing: 27.5
